Measurement conditions: basic group
Criterion: pKa meeting or surpassing 8. Met: Yes. Not met: No.

Compound	Class
CCOC(C)=N	No

pKa >= 8 for C=C(C)C(=O)OCCN ?
Yes

Input CC(N)Cc1ccc2c(c1)OCO2 (configuration not stated)
Yes

Input COc1ccc(-c2cc3cnccc3[nH]2)c(OC)c1
Yes

Input Cc1ccc2c(c1)cc(C)n2C
No

Input COc1ccc(O)c(CN(C)C)c1
Yes

----------
Measurement conditions: acidic group
Readout name: pKa
Provide a numeric answer; units are not to be included.

Below: 3 compounds and their reported pKa.
CC[NH2+]CCCC(=O)O 3.92
CC(=O)c1cccc(NS(=O)(=O)C(F)(F)F)c1 3.75
FC(F)(F)c1cccc(NC=S)c1 10.8

Look up pKa for this compound: NC(=O)CC(=O)O
3.61

Input NNC(=O)c1ccccc1N
12.8

Input CC(C)(C)S
11.1

----------
Measurement conditions: acidic group
Readout name: pKa
Provide a numeric answer; units are not to be included.

Below: 2 compounds and their reported pKa.
Compound	Test value
Cc1ncc2c(c1O)C(O)OC2 (stereo not drawn)	8.75
NC(=O)C1CC2CCN1CC2 (stereo not drawn)	9.04

// moving on: another record for pKa
Look up pKa for this compound: O=[N+]([O-])/C=C/c1cccc(O)c1
9.05

----------
Measurement conditions: acidic group
Readout name: pKa

Below: 8 compounds and their reported pKa.
S=C(Nc1ccc(Br)cc1)c1ccccc1 10.4
O=C(O)/C=C\c1ccc(O)cc1 4.08
O=C([O-])[C@@H]1CC[C@@H](C(=O)O)[Se][Se]1 3.67
CCCCCOc1ccc(O)cc1 10.2
C=C(/C=C(/C)O)C(C)(C)C 11
C[n+]1c2ccccc2cc2cc(N)ccc21 9.8
O=C(O)C1=C/C=C\C=C/C=C\1 4.4
[O-]c1cccc(O)c1 11.3

// moving on: another record for pKa
Look up pKa for this compound: Cc1cc([C@@H]([NH3+])CO)c(O)c([C@@H]([NH3+])CO)c1
6.3

----------
Measurement conditions: basic group
Readout name: pKa

Below: 2 molecules and their reported pKa.
Molecule	Test value
CC1(C)S[C@H]2C(C(=O)[O-])N=C(CCCC(N)C(=O)[O-])N2C1C(=O)[O-] (some centres undefined)	10.3
CC(C)c1ccccn1	5.83

Look up pKa for this molecule: COc1ccc(CN)c([N+](=O)[O-])c1
8.77

Input CC(C)NCCCCCCNC(C)C
11.2

Input CCc1c(-c2ccccc2)nn(C2CCN(C)CC2)c1[O-]
9.15

----------
Measurement conditions: basic group
Criterion: pKa meeting or surpassing 7. Met: Condition met. Not met: Condition not met.

Worked examples, 3 molecules total:
Molecule	Class
c1ccc(-c2ccc[nH+]c2)nc1	Condition not met
CCCCCCCCCCCC[NH2+]CCCN	Condition met
Cc1cn2nc(-c3ccccc3)ccc2n1	Condition not met

pKa >= 7 for O=[PH]([O-])C([NH2+]Cc1cccnc1)c1ccccc1O (stereo unspecified) ?
Condition not met

Input CN1CC=CC1
Condition met

Input CSCc1cccc(CSC)n1
Condition not met

Input O=C([O-])CSc1nc2cc3c(cc2[nH]1)CCCC3
Condition not met

----------
List of pKa values.
Measurement conditions: acidic group
Provide a numeric answer; units are not to be included.

Compound	Test value
COc1ncnc2nc[nH]c12	9.16
O/N=C1\CCCc2nonc21	8.78
CC(C[Si](C)(C)CCCCl)C(=O)O (configuration not stated)	5.05
CC1(C(=O)O)CCCCC1	5.13
O/N=C/c1ccccc1O	9.21

Look up pKa for this compound: CC(=O)Sc1ccc(O)cc1
8.88

Input COc1ccc(NS(=O)(=O)c2ccccc2)cc1
8.88

----------
Measurement conditions: acidic group
Readout name: pKa
Provide a numeric answer; units are not to be included.

Compound	Test value
Cc1ccc([Se]CC(=O)O)cc1	3.86

// moving on: another record for pKa
Look up pKa for this compound: CC(C)c1ccccc1C(=O)O
3.64

----------
Measurement conditions: basic group
Criterion: pKa meeting or surpassing 8. Met: rule met. Not met: rule not met.

Compound	Class
O=C([O-])c1cc2cc(Cn3ccnc3)ccc2o1	rule not met
CC(O)CNC(C)(C)C (stereo unspecified)	rule met
C[n+]1ccccc1-c1ccccn1	rule not met
CN(C)CCc1ccc(O)cc1	rule met
CCN(CC)C(C)(C)C=O	rule met

pKa >= 8 for Cn1ncc2ccccc21 ?
rule not met

Input Cc1ccc(CNCC[NH3+])cc1
rule not met

Input NC(=O)Nc1[nH]cnc1C(=O)[O-]
rule not met

Input CNCc1ccc(C)cc1
rule met

Input Cc1nn(C)c(C)c1Cl
rule not met

Input Nc1cccc(-c2ccccc2)c1
rule not met

Input C[C@H](O)[C@H]1CC[C@H]2[C@@H]3CC[C@H]4C[C@H](N)CC[C@]4(C)[C@H]3CC[C@]12C
rule met

Input CC[NH+](CC)CCCNc1ccnc2ccccc12
rule met

Input CN1C2CCC(C2)N1C
rule not met

Input N#Cc1cncc2ccccc12
rule not met

Input c1cc(N2CCCC2)cc[nH+]1
rule not met

Input CCCCCCN(CCCCCC)c1ccccc1
rule not met

Input CN(C)c1ncccn1
rule not met

Input c1ccc(-c2ccncc2)nc1
rule not met

Input CN(C)c1ccc2cc3ccc(N(C)C)cc3[nH+]c2c1
rule not met

----------
Measurement conditions: acidic group
List of pKa values.

Compound	pKa
Cc1ccc(CCC(=O)O)cc1	4.74
Oc1cccc2cn[nH]c12	8.6
COc1nc([N+](=O)[O-])n[nH]1	5.35
Oc1ccc2[nH]ncc2c1	10.1
COc1ccc(C(=O)c2cc[nH]n2)cc1	12.1

// moving on: another record for pKa
Look up pKa for this compound: COc1ccc2[nH]c3c(c2c1)CCN=C3C
14.5

----------
Measurement conditions: basic group
List of pKa values.
Provide a numeric answer; units are not to be included.

Below: 3 molecules and their reported pKa.
Molecule	Test value
Cc1ccc2ccc(C)nc2c1	5.01
Nc1ccnc([O-])n1	12.2
[O-]c1ncccn1	9.17

Look up pKa for this molecule: O=C([O-])[C@@H]1CCCN1
10.6

Input COc1ccc(O)c(CNC(CO)C(=O)[O-])c1 (stereo not given)
8.3

Input Nc1ncc(Br)s1
3.61

----------
List of pKa values.
Measurement conditions: basic group

Below: 3 compounds and their reported pKa.
C=CC(=O)NCCCN(C)C 9.23
CCCCSC1=NCCN1 9
CCSCCN(CC)CC 9.03

// moving on: another record for pKa
Look up pKa for this compound: COc1ccc2[nH]c3c(c2c1)CCN=C3C
9.21

----------
Measurement conditions: acidic group
Criterion: pKa meeting or surpassing 9. Met: Met. Not met: Not met.

Worked examples, 8 compounds total:
Compound	Class
COc1ccc(C(=O)S)cc1	Not met
NC(=O)c1ccccc1O	Not met
CCC1(CC)C(=O)NC(=O)N(C(=O)c2ccccc2OC)C1=O	Not met
CCN(CC)Cc1cc(C)ccc1O	Met
Cc1cc(O)c(C(C)C)cc1C	Met
O=c1ccc(O)ccc1[O-]	Met
O=c1ccc2ccc(O)c(O)c2o1	Not met
Oc1c(Cl)c(Cl)cc(Cl)c1C[NH+]1CCOCC1	Not met

pKa >= 9 for COc1c(O)cccc1CN ?
Met

Input C[Si](C)(C)CCCC(=O)O
Not met

Input Nc1ccc(-c2nnn[nH]2)cc1
Not met

----------
List of pKa values.
Measurement conditions: acidic group
Provide a numeric answer; units are not to be included.

Below: 5 compounds and their reported pKa.
C=CCc1ccc2cccnc2c1O 10.1
c1ccc(CSc2cnn[nH]2)cc1 8.2
[O-]c1ccc(-c2ccc(O)cc2)cc1 14.1
O=C1NCc2[nH]cnc2N1 11.5
Cc1nccc2c1[nH]c1ccccc12 14.5

Look up pKa for this compound: [NH3+]C[C@H](O)C(=O)O
2.78

Input S=C(Nc1ccc(Br)cc1)c1cccc(Br)c1
9.96

Input Cc1ccccc1NN=C(C#N)C#N
6.9

Input O=CCC=O
4.57

Input CCCCC1(CC)C(=O)NC(=S)NC1=O
7.37

Input O/N=C/c1ccccn1
10.1

Input Oc1ccc(/N=N/c2nc3ccccc3s2)c2cccnc12
7.2

----------
Measurement conditions: basic group
# binning rule on pKa: band 1 = under 3, band 2 = from 3 up to 7, band 3 = 7 and over

Worked examples, 5 compounds total:
Compound	Class
Cc1cc(C)n(C)n1	band 2
O=[PH]([O-])C([NH2+]Cc1ccncc1)c1ccccc1O (stereo not given)	band 2
COc1ccc(N)cn1	band 2
[O-]c1cc2ccccc2nn1	band 3
O=P([O-])(O)C([NH2+]Cc1ccccn1)c1ccccc1O (stereo not given)	band 2

Proceed to the following item.
State the band of c1ccc2c(c1)C1CCN2c2ccccc21
band 2
